# Measurement protocol: inhibitors of mutant huntingtin aggregation, primary screen, imaging, exon1htt(103Q)mCFP cells, high-content imaging (AID 483);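 note: compound exposure lasted 3 days before fixation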
# Test parameters: exon1htt(103Q)mCFP cell line, aggregate imaging, at 2 µM
The source made the active and inactive calls.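 Rule for the calls: active = visual image review flags a hit and inhibition of aggregation exceeds 20%; inconclusive = visual hit but inhibition at or below 20%; inactive = no hit on visual image review.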
Outcomes: active, inactive

>>> qualitative_label("Clc1ccc(C2=Nn3c(nnc3-c3n[nH]c4c3CCC4)SC2)cc1Cl")
"inactive"
>>> qualitative_label("Cc1oc2c(CN3CCOCC3)c(O)ccc2c(=O)c1-c1ccc(Br)cc1")
"inactive"
>>> qualitative_label("COc1ccc(C(=O)Oc2c(CN3CCOCC3)cc(Cl)c3cccnc23)cc1OC")
"inactive"
>>> qualitative_label("CCOc1ccc(NC(=O)Cn2nnc(-c3ccccc3F)n2)cc1")
"inactive"
>>> qualitative_label("COc1cc(NC(=O)CSCc2cnn(-c3ccccc3)c2-n2cccc2)cc(OC)c1")
"inactive"
>>> qualitative_label("Cc1cc(-n2c(C)cc(C(=O)CSc3nnnn3-c3ccc(Cl)cc3)c2C)no1")
"inactive"
>>> qualitative_label("COc1ccc(CCn2c(C)cc(C(=O)CSc3nnnn3C)c2C)cc1")
"inactive"
>>> qualitative_label("Cc1nnc(NC(=O)CSc2cn(CCNC(=O)c3ccccc3)c3ccccc23)s1")
"inactive"
>>> qualitative_label("Cc1cc(=O)n2nc(N3CCCC(C(=O)N4CCc5ccccc54)C3)sc2n1 (centres undefined)")
"inactive"
>>> qualitative_label("CCc1ccc(C2CC(c3ccccc3)n3ncnc3N2)cc1 (centres undefined)")
"inactive"
>>> qualitative_label("Cc1ccccc1-n1c(=O)cc(NCc2ccc3c(c2)OCO3)[nH]c1=O")
"active"
>>> qualitative_label("CC1CCCCN1CCNS(=O)(=O)c1ccc2c(c1)oc(=O)n2C (centres undefined)")
"inactive"
>>> qualitative_label("c1ccc(-n2c(Sc3cnccn3)nnc2-c2cccs2)cc1")
"inactive"
>>> qualitative_label("CCOC(=O)N1CCN(C(=O)CSc2nnc(-c3cccc(Cl)c3)o2)CC1")
"inactive"
>>> qualitative_label("OC1C[N+]2(CCCCC2)C1")
"inactive"
>>> qualitative_label("COc1ccc(C(=O)N(CCCO)Cc2cc3c(C)ccc(C)c3[nH]c2=O)cc1OC")
"inactive"
>>> qualitative_label("Cn1c(NC(=O)c2ccccc2NC(=O)C(C)(C)C)nc2ccccc21")
"inactive"
>>> qualitative_label("O=C(c1ccco1)N1CCN(C(=O)C2CC(c3ccc(F)cc3)=NO2)CC1 (centres undefined)")
"inactive"
>>> qualitative_label("COc1ccccc1NC(=O)C1=C(C)Nc2nc(CCCO)nn2C1c1cccnc1 (centres undefined)")
"inactive"
